Numbers sourced from ChEMBL document CHEMBL5442219.

# assayed-system: Kappa-type opioid receptor (Homo sapiens) (UniProt P41145)
# Sequence (P41145 whole entry): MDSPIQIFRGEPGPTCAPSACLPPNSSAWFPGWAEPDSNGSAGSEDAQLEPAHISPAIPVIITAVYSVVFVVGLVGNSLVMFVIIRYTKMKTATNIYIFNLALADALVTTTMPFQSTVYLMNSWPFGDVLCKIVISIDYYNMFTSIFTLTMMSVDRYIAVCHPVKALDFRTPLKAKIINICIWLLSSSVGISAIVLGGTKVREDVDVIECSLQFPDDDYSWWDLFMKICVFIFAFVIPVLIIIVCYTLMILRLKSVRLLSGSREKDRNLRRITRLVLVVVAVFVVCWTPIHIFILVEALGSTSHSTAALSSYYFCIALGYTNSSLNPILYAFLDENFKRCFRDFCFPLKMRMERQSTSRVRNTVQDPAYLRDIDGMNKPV
# measurement-parameters: Compound concentration 10 µM; call rule not given here
Choose one outcome from this list and give only that: 1 = active, -1 = inactive

Here are 4 molecules together with their reported answers.
molecule=CCCn1c(=O)c2[nH]c(-c3cnn(Cc4cccc(C(F)(F)F)c4)c3)nc2n(CC)c1=O category=-1
molecule="C[C@@H](NCCc1ccc(O)cc1)[C@@H](O)c1ccc(O)cc1 (relative stereo)" category=-1
molecule=CC(C)C[C@H](NC(=O)N1CCCCCC1)C(=O)N[C@H](Cc1cn(C)c2ccccc12)C(=O)N[C@H](Cc1ccccn1)C(=O)O category=-1
molecule=COc1ccc(OC(F)(F)F)cc1CN[C@H]1CCCN[C@H]1c1ccccc1 category=-1

Problem: Record request — test call for `C=CCN1C[C@H](C)N([C@H](c2ccc(C(=O)N(CC)CC)cc2)c2cccc(O)c2)C[C@H]1C`
Solution: 1

----------
# assayed-system: 5-hydroxytryptamine receptor 1A (Homo sapiens) (UniProt P08908)
# Sequence (P08908 whole entry): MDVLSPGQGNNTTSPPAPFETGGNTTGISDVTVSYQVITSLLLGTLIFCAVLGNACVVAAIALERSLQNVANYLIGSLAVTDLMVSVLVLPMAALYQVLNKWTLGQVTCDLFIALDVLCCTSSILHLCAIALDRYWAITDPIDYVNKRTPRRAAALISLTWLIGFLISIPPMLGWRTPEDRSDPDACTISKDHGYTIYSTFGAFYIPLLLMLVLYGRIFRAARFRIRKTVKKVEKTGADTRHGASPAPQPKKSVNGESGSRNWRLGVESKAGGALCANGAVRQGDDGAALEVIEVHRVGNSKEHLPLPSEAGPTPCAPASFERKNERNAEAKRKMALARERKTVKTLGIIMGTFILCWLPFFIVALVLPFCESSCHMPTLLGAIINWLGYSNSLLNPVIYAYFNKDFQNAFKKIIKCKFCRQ
# measurement-parameters: Compound concentration 10 µM
# Description: PDSP Primary Binding target: HTR1A - Compounds are tested at 10 uM concentration, plate are incubated at room temperature in the dark for 90 minutes. Reaction are stopped by vacuum filtration onto 0.3% polyethyleneimine soaked filter mats using Filtermate harvester. Scintilation cocktail is then melted onto microwave-dried filters on a hot plate and the radio activity is counted in Microbia counter.
Each entry below carries its recorded inhibition.
Reply with just the number (in %).

Answered examples (3):
compound=NCCc1c[nH]c2ccc(C(N)=O)cc12 measure_name=inhibition unit_of_measure=% data_value=91.4
compound=Cc1nc(-c2ccc(-c3ccc(C(=O)N4CCc5cc6c(cc54)C4(CCN(C)CC4)CO6)cc3)c(C)c2)no1 measure_name=inhibition unit_of_measure=% data_value=9.17
compound=Clc1cccc(Cl)c1NC1=NCCN1 measure_name=inhibition unit_of_measure=% data_value=8

For record `c1ccc(N2CCN(Cc3nc4ccccc4[nH]3)CC2)nc1` the listed inhibition is 35.1

For record CN(C(=O)Cc1ccc(Cl)c(Cl)c1)C(CN1CCCC1)c1cccc(OCC(=O)O)c1 (stereo not given) the listed inhibition is 24.9

For record O=C(c1cc2c(cc1F)OC(c1ccc(F)cc1)(c1ccc(Cl)cc1Cl)O2)N1CCOCC1 (stereo not given) the listed inhibition is 5.52

For record `N#Cc1c(N)nc(SCc2csc(-c3ccc(Cl)cc3)n2)c(C#N)c1-c1ccc(OCCO)cc1` the listed inhibition is -0.89

For record `CCCSc1nc(N[C@@H]2C[C@H]2c2ccc(F)c(F)c2)c2nnn([C@@H]3C[C@H](OCCO)[C@@H](O)[C@H]3O)c2n1` the listed inhibition is 11.6

For record `CCc1ccc(OCc2ccccc2C(=O)Nc2ccc3nc(C)cc(N)c3c2)cc1` the listed inhibition is 9.8

For record `CCCCCCCCCCCCC/C=C/[C@@H](O)[C@@H](N)COP(=O)(O)O` the listed inhibition is -8.27

For record `CN1C(=O)[C@@H](NC(=O)c2cc3ccccc3[nH]2)N=C(c2ccccc2)c2ccccc21` the listed inhibition is -1.26

For record `CN(C)S(=O)(=O)c1ccc(NC(=S)N2CCC(C(O)(c3ccccc3)c3ccccc3)CC2)cc1` the listed inhibition is 10.5

For record `Cc1cc(C(=O)N2Cc3cnn(C)c3Nc3ccccc32)ccc1CNC(=O)N1CCC[C@H]1C(=S)N1CCCN(C)CC1` the listed inhibition is -3.18

For record `Cc1nc(C#Cc2ccnc(Cl)c2)c(C)n1-c1ccc(OC(F)(F)F)cc1` the listed inhibition is 10.3

For record `CN1CCN(c2ccc(Nc3c4ccccc4nc4ccccc34)cc2)CC1` the listed inhibition is 8.52

For record `CCCCCNC(=N)N/N=C/c1c[nH]c2ccc(OC)cc12` the listed inhibition is 101

For record `COc1ccccc1CN[C@H]1C2CCN(CC2)[C@H]1C(c1ccccc1)c1ccccc1` the listed inhibition is -1.15

For record `COC(=O)[C@H]1[C@H]2C[C@H]3c4[nH]c5ccccc5c4CCN3C[C@H]2CC[C@@H]1O` the listed inhibition is 1.62

For record `O=C1N/C(=N/c2ccccc2F)S/C1=C\c1ccc(C(=O)O)cc1` the listed inhibition is 2.18

For record `CN1CCC(C(=O)c2cccc(NC(=O)c3c(F)cc(F)cc3F)n2)CC1` the listed inhibition is 4.22
